test system: DBA/2 mice, P1534 leukemia ip, survival T/C; assay: NCI In Vivo Anticancer Drug Screen. Data for tumor model P1534 Leukemia (intraperitoneal) in DBA/2 mice; conditions: endpoint: mean survival time; dose: 250.0 mg/kg/injection; schedule: Q01DX010 (ip); vehicle: saline; higher = longer survival
Toxic doses and inconclusive results are not listed.
EXPERIMENTAL ENDPOINT: T/C

O=C(OCC1OC(n2cnc3c(=S)nc[nH]c32)C(OC(=O)c2ccccc2)C1OC(=O)c1ccccc1)c1ccccc1 (stereo unspecified)
87 % of control

# query: T/C of entry O=c1[nH]c(=O)n(C2CC(O)C(CO)O2)cc1Br (stereo unspecified)
96 % of control

Suppose we examine the compound `CC(=O)Nc1ccc2nc3ccc(NC(C)=O)cc3[n+](-c3ccccc3)c2c1` ; what T/C value has been reported?
88 % of control

# input compound: `c1ccc(CCSc2ncnc3nc[nH]c23)cc1` ; wanted: its T/C
100 % of control

Consider the compound `CC(C)(C)CC(C)(C)c1ccc(O)cc1` and give its measured T/C.
107 % of control

// query T/C value for entry O=C1CCC(N2C(=O)c3ccccc3C2=O)C(=O)N1 (stereo unspecified)
96 % of control
